These measurements were taken from the supplement of paper PMC9262897.

- System: E. coli TESEC Mtb Alr
- measurement description: growth (OD600 after 10 h); higher = more growth (less inhibition)
- test settings: arabinose 1000 nM; compound 0.1 mM; raw OD600 reference: median of DMSO wells 0.294, cell-free background 0.041
Counter-ions that a name gives are not always drawn.
value kind: growth
Format: numeric value only, no unit, no commentary.

Exercise: Would you mind telling me what growth value was observed for CCCNC(C)(C)COC(=O)c1ccccc1 [Meprylcaine hydrochloride] ?
Solution: 0.298

Exercise: Would you mind telling me what growth value was observed for Cc1ccc(Cl)c(Nc2ccccc2C(=O)O)c1Cl [Meclofenamic acid sodium salt monohydrate] ?
Solution: 0.0555

Exercise: Would you mind telling me what growth value was observed for CC1(O)CCOC(=O)C1 (centres undefined) ?
Solution: 0.304

Exercise: Would you mind telling me what growth value was observed for `Cn1c([N+](=O)[O-])cnc1COC(N)=O` ?
Solution: 0.296

Exercise: Would you mind telling me what growth value was observed for COc1cccc(N(C)C(=S)Oc2ccc3c(c2)CCCC3)n1 [Liranaftate] ?
Solution: 0.259

Exercise: Would you mind telling me what growth value was observed for CCN(CC)C(=O)N1CCN(C)CC1 [Diethylcarbamazine citrate] ?
Solution: 0.274

Exercise: Would you mind telling me what growth value was observed for OC(CCN1CCCCC1)(c1ccccc1)C1CCCCC1 (centres undefined) [Trihexyphenidyl-D,L Hydrochloride] ?
Solution: 0.316

Exercise: Would you mind telling me what growth value was observed for CC1(C)S[C@@H]2[C@H](NC(=O)[C@H](C(=O)O)c3ccsc3)C(=O)N2[C@H]1C(=O)O [Ticarcillin sodium] ?
Solution: 0.296

Exercise: Would you mind telling me what growth value was observed for Cc1c(C)c2c(c(C)c1O)CCC(C)(COc1ccc(CC3SC(=O)NC3=O)cc1)O2 (centres undefined) ?
Solution: 0.108

Exercise: Would you mind telling me what growth value was observed for COc1ccc(C[C@@H]2c3cc(OC)c(OC)cc3CC[N@+]2(C)CCC(=O)OCCCCCOC(=O)CC[N@@+]2(C)CCc3cc(OC)c(OC)cc3[C@H]2Cc2ccc(OC)c(OC)c2)cc1OC [Cisatracurium besylate] ?
Solution: 0.307

Exercise: Would you mind telling me what growth value was observed for CO/N=C(\C(=O)N[C@@H]1C(=O)N2C(C(=O)O)=C(COC(C)=O)CS[C@H]12)c1csc(N)n1 [Cefotaxime sodium salt] ?
Solution: 0.0388

Exercise: Would you mind telling me what growth value was observed for CC(C)(Oc1ccc(CCNC(=O)c2ccc(Cl)cc2)cc1)C(=O)O [Bezafibrate] ?
Solution: 0.296

Exercise: Would you mind telling me what growth value was observed for `Nc1ccn([C@H]2CC[C@@H](CO)O2)c(=O)n1` ?
Solution: 0.298

Exercise: Would you mind telling me what growth value was observed for `COc1ccc(/C=C/C(=O)Nc2ccccc2C(=O)O)cc1OC` ?
Solution: 0.245

Exercise: Would you mind telling me what growth value was observed for O=P(O)(O)C(O)(Cn1ccnc1)P(=O)(O)O [Zoledronic acid hydrate] ?
Solution: 0.279

Exercise: Would you mind telling me what growth value was observed for C[C@]12CCC(=O)C=C1CC[C@@H]1[C@@H]2[C@@H](O)C[C@@]2(C)[C@H]1CC[C@]2(O)C(=O)CO [Hydrocortisone base] ?
Solution: 0.265

Exercise: Would you mind telling me what growth value was observed for `CC(=O)NC[C@H]1CN(c2ccc(N3CCOCC3)c(F)c2)C(=O)O1` ?
Solution: 0.0465

Exercise: Would you mind telling me what growth value was observed for `Cn1cnc([N+](=O)[O-])c1Sc1ncnc2[nH]cnc12` ?
Solution: 0.0771

Exercise: Would you mind telling me what growth value was observed for `CC(C)c1ccc2oc3nc(N)c(C(=O)O)cc3c(=O)c2c1` ?
Solution: 0.157

Exercise: Would you mind telling me what growth value was observed for `C[C@]12C[C@H](O)[C@H]3[C@@H](CCC4=CC(=O)CC[C@@]43C)[C@@H]1CC[C@@H]2C(=O)CO` ?
Solution: 0.195

Exercise: Would you mind telling me what growth value was observed for CN(C)CCC(c1ccc(Cl)cc1)c1ccccn1 (centres undefined) [Chlorpheniramine maleate] ?
Solution: 0.264

Exercise: Would you mind telling me what growth value was observed for CC(C(=O)O)c1cccc(C(=O)c2ccccc2)c1 (centres undefined) ?
Solution: 0.249

Exercise: Would you mind telling me what growth value was observed for CCc1cc(C(N)=S)ccn1 [Ethionamide] ?
Solution: 0.294

Exercise: Would you mind telling me what growth value was observed for C[N+]1(C)CCC(OC(=O)C(O)(c2ccccc2)C2CCCC2)C1 (centres undefined) [Glycopyrrolate] ?
Solution: 0.301

Exercise: Would you mind telling me what growth value was observed for CN(C(=O)C(Cl)Cl)c1ccc(OC(=O)c2ccco2)cc1 [Diloxanide furoate] ?
Solution: 0.264

Exercise: Would you mind telling me what growth value was observed for CN(C)C(=O)C(CCN1CCC(O)(c2ccc(Cl)cc2)CC1)(c1ccccc1)c1ccccc1 [Loperamide hydrochloride] ?
Solution: 0.0401

Exercise: Would you mind telling me what growth value was observed for NS(=O)(=O)c1cc2c(cc1Cl)N=C(CSCc1ccccc1)NS2(=O)=O [Benzthiazide] ?
Solution: 0.292

Exercise: Would you mind telling me what growth value was observed for O=C(N/N=C/c1ccc([N+](=O)[O-])o1)c1ccc(O)cc1 [Nifuroxazide] ?
Solution: 0.217

Exercise: Would you mind telling me what growth value was observed for CCCNC(C)C(=O)Nc1ccccc1C (centres undefined) [Prilocaine hydrochloride] ?
Solution: 0.275

Exercise: Would you mind telling me what growth value was observed for `COC(=O)Nc1nc2cc(C(=O)c3ccccc3)ccc2[nH]1` ?
Solution: 0.245

Exercise: Would you mind telling me what growth value was observed for COc1cc([C@@H]2c3cc4c(cc3[C@@H](O[C@@H]3O[C@@H]5CO[C@@H](C)O[C@H]5[C@H](O)[C@H]3O)[C@H]3COC(=O)[C@H]23)OCO4)cc(OC)c1O [Etoposide] ?
Solution: 0.0527

Exercise: Would you mind telling me what growth value was observed for CCN(CC)CCNC(=O)c1cc(Br)c(N)cc1OC [Bromopride] ?
Solution: 0.312

Exercise: Would you mind telling me what growth value was observed for CC[N+](C)(CC)CCOC(=O)C1c2ccccc2Oc2ccccc21 [Methantheline bromide] ?
Solution: 0.269

Exercise: Would you mind telling me what growth value was observed for CC(C(=O)O)c1ccc2c(c1)Cc1cccnc1O2 (centres undefined) ?
Solution: 0.302
